Each recorded value in this set is attributed to patent US12692269B2.

# SYSTEM UNDER TEST: TEAD4 YAP50-100 (Homo sapiens)
# ASSAY EXPLANATION: TEAD4-YAP HTRF (TR-FRET) protein-protein interaction assay
# STATED CONDITIONS: TEAD4, YAP peptide 50-100, HTRF; read-out: TEAD4 YAP50-100 HTRF combined: EC50
PARAMETER: EC50 (nM)

Answered examples (2):
Cc1nccnc1-c1nn2c(=O)cc(-c3ccc(CC4CCCC4)cc3)[nH]c2c1C(=O)N1C[C@H](CF)[C@@H]1C (single isomer, unassigned) [Isomer B, Example 42] = 20
CCc1ccnc(-c2nn3c(=O)cc(-c4ccc(C5CCCCC5)cc4)[nH]c3c2C(=O)N2CC(CF)C2)n1 = 200

A = Cc1c(-c2nn3c(=O)cc(-c4ccc(C5CCCCC5)cc4)[nH]c3c2C(=O)N2CC(CF)C2)ncn1C
B = C[C@H]1[C@@H](CF)CN1C(=O)c1c(-c2ncccn2)nn2c(=O)cc(-c3ccc(CC4CCCC4)cc3)[nH]c12 (single isomer, unassigned) [Isomer A, Example 43]
C = Cc1nccnc1-c1nn2c(=O)cc(-c3ccc(O[C@@H](c4ccccc4)C(F)(F)F)cc3)[nH]c2c1C(=O)N1CC(CF)C1
D = CN(C)C(=O)c1nn2c(=O)cc(-c3ccc(CC4CCCC4)cc3)[nH]c2c1C(=O)N1CC(CF)C1
Prompt: Given 4 molecules, produce a descending ranking by EC50. Quick reminder: the answer is the labels in the order asked.
Completion: C, D, A, B

----------
# SYSTEM UNDER TEST: TEAD4 YAP50-100 (Homo sapiens, UniProt Q15561)
# Sequence (Q15561 217-434 limits assumed): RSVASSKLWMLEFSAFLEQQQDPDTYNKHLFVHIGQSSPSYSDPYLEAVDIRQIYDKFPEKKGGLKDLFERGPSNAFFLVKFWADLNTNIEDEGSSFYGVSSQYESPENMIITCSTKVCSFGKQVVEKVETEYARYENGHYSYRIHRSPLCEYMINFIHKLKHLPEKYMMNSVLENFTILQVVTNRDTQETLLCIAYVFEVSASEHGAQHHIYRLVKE
# ASSAY EXPLANATION: TEAD4-YAP HTRF (TR-FRET) protein-protein interaction assay
# Assay type: binding
# STATED CONDITIONS: TEAD4, YAP peptide 50-100, HTRF
# Description: Purified His-tagged TEAD protein (YAP Binding Domain, amino acids 217-447) is pre-incubated with Europium labelled anti-His antibody tracer (Perkin Elmer Cat #AD0110). […] After 60 minutes, the plate is read on a plate reader using TR-FRET mode with wavelengths of 665 nm/615 nm. […] The potency of compounds as YAP:TEAD or TAZ:TEAD protein-protein interaction (PPi) inhibitors is determined by an IC50 or EC50 value generated using a non-linear four parameter curve fit.
PARAMETER: TEAD4 YAP50-100 HTRF combined: Max % Inhibition (%)

Here is how some molecules turned out for TEAD4 YAP50-100 HTRF combined: Max % Inhibition.
Cc1nccnc1-c1nn2c(=O)cc(-c3ccc(C4(F)CCCCC4)cc3)[nH]c2c1C(=O)N1CC(CF)C1 [Compound 59] = 40.0
Cc1nccnc1-c1nn2c(=O)cc(-c3ccc(-c4ccccc4)cc3)[nH]c2c1C(=O)N1CC(CF)C1 [Compound 60] = 60.0
C[C@@H]1[C@H](CF)CN1C(=O)c1c(-c2cnccn2)nn2c(=O)cc(-c3ccc(C4CCCCC4)cc3)[nH]c12 (single isomer, unassigned) [Isomer B, Example 39] = 46.0
Cc1nccnc1-c1nn2c(=O)cc(-c3ccc(CC(C)(C)C)cc3)[nH]c2c1C(=O)N1C[C@H](CF)[C@@H]1C (racemic) [Compound 73] = 58.5
Cc1ccnc(-c2nn3c(=O)cc(-c4ccc(C5CCCCC5)cc4)[nH]c3c2C(=O)N2CC(CF)C2)n1 [Compound 9] = 52.0

A = C[C@H]1[C@@H](CF)CN1C(=O)c1c(-c2ncccn2)nn2c(=O)cc(-c3ccc(CC4CCCC4)cc3)[nH]c12 (single isomer, unassigned) [Isomer A, Example 43]
B = C[C@@H]1[C@H](CF)CN1C(=O)c1c(C(=O)N(C)C)nn2c(=O)cc(-c3ccc(C4CCCCC4)cc3)[nH]c12 [Compound 6]
C = Cc1nccnc1-c1nn2c(=O)cc(-c3ccc(C(F)(F)C4CCCC4)cc3)[nH]c2c1C(=O)N1CC(CF)C1 [Compound 56]
Prompt: Rank ascending by TEAD4 YAP50-100 HTRF combined: Max % Inhibition. Please list the labels according to the requested order.
Completion: B, C, A
(B: 17.0%, C: 33.0%, A: 52.0%)

----------
# SYSTEM UNDER TEST: TEAD2 YAP50-100 (Homo sapiens, UniProt Q15562)
# Sequence (Q15562 217-447): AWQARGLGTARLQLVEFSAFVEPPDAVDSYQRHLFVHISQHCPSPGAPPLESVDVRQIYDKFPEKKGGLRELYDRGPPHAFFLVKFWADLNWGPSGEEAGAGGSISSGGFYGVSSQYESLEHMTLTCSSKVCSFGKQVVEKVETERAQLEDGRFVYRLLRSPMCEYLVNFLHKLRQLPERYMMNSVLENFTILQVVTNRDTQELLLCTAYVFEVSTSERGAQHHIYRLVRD
# ASSAY EXPLANATION: TEAD2-YAP HTRF (TR-FRET) protein-protein interaction assay
# Assay type: binding
# STATED CONDITIONS: TEAD2, YAP peptide 50-100, HTRF
PARAMETER: TEAD2 YAP50-100 HTRF combined: Max % Inhibition (%)

Solved cases below.
C[C@H]1[C@@H](CF)CN1C(=O)c1c(-c2ncccn2)nn2c(=O)cc(-c3ccc(C4CCCCC4)cc3)[nH]c12 (single isomer, unassigned) [Isomer B, Example 40] = 68.0
Cc1nccnc1-c1nn2c(=O)cc(-c3ccc(C4CCCC4)cc3)[nH]c2c1C(=O)N1C[C@H](CF)[C@@H]1C = 76.0
C[C@H]1[C@@H](CF)CN1C(=O)c1c(-c2ncccn2)nn2c(=O)cc(-c3ccc(CC4CCCC4)cc3)[nH]c12 (single isomer, unassigned) [Isomer A, Example 43] = 71.0
CCn1cnc(-c2nn3c(=O)cc(-c4ccc(C5CCCCC5)cc4)[nH]c3c2C(=O)N2CC(CF)C2)c1 = 62.0
O=C(c1c(-c2cnccn2)nn2c(=O)cc(-c3ccc(CC4CCCC4)cc3)[nH]c12)N1CC(CF)C1 = 63.5
O=C(c1c(-c2cnco2)nn2c(=O)cc(-c3ccc(C4CCCCC4)cc3)[nH]c12)N1CC(CF)C1 = 62.0

I = C[C@H]1[C@@H](CF)CN1C(=O)c1c(C(=O)N(C)C)nn2c(=O)cc(-c3ccc(C4CCCCC4)cc3)[nH]c12
II = O=C(c1c(-c2ncccn2)nn2c(=O)cc(-c3ccc(C4CCCCC4)c(F)c3)[nH]c12)N1CC(CF)C1
Prompt: Response body: label of entry with the larger TEAD2 YAP50-100 HTRF combined: Max % Inhibition; valid values I , II . I would appreciate it if you answered with the label of your choice.
Completion: I

a = C[C@@H](CO)c1nn2c(=O)cc(-c3ccc(C4CCCCC4)cc3)[nH]c2c1C(=O)N1CC(CF)C1 (single isomer, unassigned) [Enantiomer B, Example 55]
b = Cc1nccnc1-c1nn2c(=O)cc(-c3ccc(OC(c4ccccc4)C(F)(F)F)cc3)[nH]c2c1C(=O)N1C[C@H](CF)[C@@H]1C (single isomer, unassigned) [Final product obtained using Enantiomer A from Step 1, Example 56]
Prompt: For this pair, a and b , which shows a numerically higher TEAD2 YAP50-100 HTRF combined: Max % Inhibition? Write the label of whichever entry you select.
Completion: b

A = O=C(c1c(-c2ccccn2)nn2c(=O)cc(-c3ccc(C4CCCCC4)cc3)[nH]c12)N1CC(CF)C1
B = Cc1nccnc1-c1nn2c(=O)cc(-c3ccc(OC(c4ccccc4)C(F)(F)F)cc3)[nH]c2c1C(=O)N1C[C@H](CF)[C@@H]1C (single isomer, unassigned) [Final product obtained using Enantiomer B from Step 1, Example 56]
Prompt: Lower TEAD2 YAP50-100 HTRF combined: Max % Inhibition: A or B ? I would appreciate it if you answered with the label of your choice.
Completion: A

----------
# SYSTEM UNDER TEST: TEAD3 YAP50-100 (Homo sapiens, UniProt Q99594)
# Sequence (Q99594 173-435 limits assumed): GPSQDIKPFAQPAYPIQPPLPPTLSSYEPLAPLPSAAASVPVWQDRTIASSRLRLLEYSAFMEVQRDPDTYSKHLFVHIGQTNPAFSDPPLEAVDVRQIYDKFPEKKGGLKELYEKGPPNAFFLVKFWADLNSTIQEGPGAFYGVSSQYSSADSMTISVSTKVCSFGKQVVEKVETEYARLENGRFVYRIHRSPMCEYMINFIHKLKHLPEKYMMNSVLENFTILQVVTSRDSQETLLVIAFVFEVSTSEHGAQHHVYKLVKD
# ASSAY EXPLANATION: TEAD3-YAP HTRF (TR-FRET) protein-protein interaction assay
# Format: binding
# STATED CONDITIONS: TEAD3, YAP peptide 50-100, HTRF
PARAMETER: TEAD3 YAP50-100 HTRF combined: Max % Inhibition (%)

CCN(C)C(=O)c1nn2c(=O)cc(-c3ccc(C4CCCCC4)cc3)[nH]c2c1C(=O)N1CC(CF)C1 [Compound 35] = 68.0
O=C(c1c(C2CNCCO2)nn2c(=O)cc(-c3ccc(C4CCCCC4)cc3)[nH]c12)N1CC(CF)C1 (single isomer, unassigned) [Enantiomer A, Example 63] = 62.0
Cc1ccnc(-c2nn3c(=O)cc(-c4ccc(C5CCCCC5)cc4)[nH]c3c2C(=O)N2CC(CF)C2)c1C [Compound 29] = 72.5
Cc1nccnc1-c1nn2c(=O)cc(-c3ccc(OC(c4ccccc4)C(F)(F)F)cc3)[nH]c2c1C(=O)N1C[C@H](CF)[C@@H]1C (single isomer, unassigned) [Final product obtained using Enantiomer B from Step 1, Example 56] = 71.0
Cc1c(-c2nn3c(=O)cc(-c4ccc(C5CCCCC5)cc4)[nH]c3c2C(=O)N2CC(CF)C2)ncn1C [Compound 30] = 65.0
C[C@H]1[C@@H](CF)CN1C(=O)c1c(-c2ncccn2)nn2c(=O)cc(-c3ccc(C4CCCCC4)cc3)[nH]c12 (single isomer, unassigned) [Isomer B, Example 40] = 68.0
CCn1cnc(-c2nn3c(=O)cc(-c4ccc(C5CCCCC5)cc4)[nH]c3c2C(=O)N2CC(CF)C2)c1 [Compound 31] = 59.0
Cc1nccnc1-c1nn2c(=O)cc(-c3ccc(OC(c4ccccc4)C(F)(F)F)cc3)[nH]c2c1C(=O)N1C[C@H](CF)[C@@H]1C (single isomer, unassigned) [Final product obtained using Enantiomer A from Step 1, Example 56] = 81.5
N#Cc1nccnc1-c1nn2c(=O)cc(-c3ccc(C4CCCCC4)cc3)[nH]c2c1C(=O)N1CC(CF)C1 [Compound 8] = 69.5
CC1CCN1C(=O)c1nn2c(=O)cc(-c3ccc(C4CCCCC4)cc3)[nH]c2c1C(=O)N1CC(CF)C1 (single isomer, unassigned) [Enantiomer A, Example 33] = 71.5
CN(C)C(=O)c1nn2c(=O)cc(-c3ccc(C4CCCCC4)cc3)[nH]c2c1C(=O)N1CC(CF)C1 [Compound 1] = 75.3
